# Measured Target: T1, FcRL3, overexpressed on 3T3 cells (UniProt Q96P31 18-734, limits assumed)
# T1 construct: whole, on cells
# T1 sequence (looked up): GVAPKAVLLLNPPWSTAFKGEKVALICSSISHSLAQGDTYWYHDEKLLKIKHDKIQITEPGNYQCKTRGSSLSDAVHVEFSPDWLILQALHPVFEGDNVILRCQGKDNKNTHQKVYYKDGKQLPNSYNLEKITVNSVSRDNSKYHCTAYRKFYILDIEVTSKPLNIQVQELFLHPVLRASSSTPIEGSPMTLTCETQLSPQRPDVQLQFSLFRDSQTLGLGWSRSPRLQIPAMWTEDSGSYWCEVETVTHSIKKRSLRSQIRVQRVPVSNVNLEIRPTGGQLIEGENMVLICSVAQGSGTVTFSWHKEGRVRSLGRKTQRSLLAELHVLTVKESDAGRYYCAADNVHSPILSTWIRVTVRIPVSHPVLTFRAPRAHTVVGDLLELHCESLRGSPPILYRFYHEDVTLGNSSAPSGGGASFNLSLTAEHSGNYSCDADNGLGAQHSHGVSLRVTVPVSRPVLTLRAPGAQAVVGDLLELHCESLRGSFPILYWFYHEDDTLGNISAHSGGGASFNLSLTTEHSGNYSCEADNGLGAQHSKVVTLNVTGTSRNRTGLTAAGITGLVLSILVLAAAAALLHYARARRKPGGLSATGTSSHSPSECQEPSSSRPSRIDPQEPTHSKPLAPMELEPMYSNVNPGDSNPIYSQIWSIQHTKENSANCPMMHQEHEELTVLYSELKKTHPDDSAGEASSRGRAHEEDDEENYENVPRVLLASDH
# Test Summary: phage clone on 3T3-FcRL3 cells
Parameter Measured: binding result

- ET200-118 (scFv, screened as phage clone; entry is VL-linker-VH-His tag-HA tag) scFv: QAVLTQPASVSGSPGQSITISCTGTSSDVGGYNYVSWYQQHPGKAPKLMIYEVSNRPSGVSNRFSGSKSGNTASLTISGLQAEDEADYYCSSYTSSSTPYVFGAGTKVTVLGSRGGGGSGGGGSGGGGSLEMAEVQLVESGGGLVQPGRSLRLSCAASGFTFDDYAMHWVRQAPGKGLEWVSGISWNSGSIGYADSVKGRFTISRDNAKNSLYLQMNSLRAEDTALYYCAKARWTAVASDHHFDYWGQGTLVTVSSTSGQAGQHHHHHHGAYPYDVPDYAS: no binding
- ET200-100 (scFv, screened as phage clone; entry is VL-linker-VH-His tag-HA tag) scFv: NFMLTQPHSVSESPGKTVTISCTRSSGSIASNFVQWYQQRPGSAPTPMIYEDNNRPPGVPDRFSASVDSSSNSASLTISGLKTEDEADYYCQSYDTSNVVFGGGTKLTVLGSRGGGGSGGGGSGGGGSLEMAEVQLVESGGGLVQPGGSLRLSCAASGFTFSSYEMNWVRQAPGKGLEWVSYISSSGSTIYYADSVKGRFTISRDNAKNSLYLQMNSLRAEDTAVYYCARWDYGMDVWGQGTTVTVSSTSGQAGQHHHHHHGAYPYDVPDYAS: no binding
